System: RAW-Dual
ASSAY COMMENT: NF-kB SEAP reporter activity, fold change vs agonist alone; higher = enhanced NF-kB activity
MEASUREMENT PARAMETERS: library stock concentration (final ~1000-fold dilution): 10 mM; cytotoxicity flag (confluency mask): not cytotoxic; agonist: MPLA (TLR4) […]
In all, about 2,900 compounds were measured (“NF-kB SEAP reporter activity, fold change vs agonist alone”: median about 0.99, highest 2% from about 2.6 on). This is one part of a sample in which the highest values are shown more often than they occur.
NF-kB SEAP reporter activity values for the compounds below.

{"COMPOUND": "CCOc1ccc(Cc2cc(C34OCC(CO)(O3)C(O)C(O)C4O)ccc2Cl)cc1 (stereo not drawn)", "ASSAYED TARGET": "RAW-Dual", "NF-kB SEAP reporter activity": 1.09}
{"COMPOUND": "O=C(Nc1cc(C(F)(F)F)ccc1N1CCN(Cc2ccccn2)CC1)c1ccc(-c2ccncc2)o1", "ASSAYED TARGET": "RAW-Dual", "NF-kB SEAP reporter activity": 1.03}
{"COMPOUND": "Nc1nc(NCCNc2ncc(-n3ccnc3)c(-c3ccc(Cl)cc3Cl)n2)ccc1[N+](=O)[O-]", "ASSAYED TARGET": "RAW-Dual", "NF-kB SEAP reporter activity": 2.25}
{"COMPOUND": "CC12CCC3C(CCC4C(C)(C(=O)O)CCCC34C)(CC1=O)C2 (stereo not drawn)", "ASSAYED TARGET": "RAW-Dual", "NF-kB SEAP reporter activity": 1.14}
{"COMPOUND": "Cc1noc(C)c1-c1ccc(-c2cc(C(N)=O)c(NC(N)=O)s2)c(OC2CCNC2)c1 (stereo not drawn)", "ASSAYED TARGET": "RAW-Dual", "NF-kB SEAP reporter activity": 0.683}
{"COMPOUND": "O=C(O)CCn1c2c(c3ccccc31)CC(NS(=O)(=O)c1ccc(F)cc1)CC2 (stereo not drawn)", "ASSAYED TARGET": "RAW-Dual", "NF-kB SEAP reporter activity": 1.07}
{"COMPOUND": "O=C(NC1=CC(=O)[C@@H]2O[C@@H]2[C@@H]1O)c1ccccc1O", "ASSAYED TARGET": "RAW-Dual", "NF-kB SEAP reporter activity": 0.949}
{"COMPOUND": "O=C(Nc1ccccc1C(=O)O)c1cc(S(=O)(=O)c2ccccc2)ccc1Cl", "ASSAYED TARGET": "RAW-Dual", "NF-kB SEAP reporter activity": 1.01}
{"COMPOUND": "NS(=O)(=O)NCCNc1nonc1C(=Nc1ccc(F)c(Br)c1)NO", "ASSAYED TARGET": "RAW-Dual", "NF-kB SEAP reporter activity": 0.907}
{"COMPOUND": "CCCC(Nc1nc(-c2ccc(NC(=O)NCC)c(OC)c2)ncc1C)c1cccnc1 (stereo not drawn)", "ASSAYED TARGET": "RAW-Dual", "NF-kB SEAP reporter activity": 2.57}
{"COMPOUND": "C=CC1CN2CCC1CC2C(O)c1ccnc2ccc(OC)cc12.C=CC1CN2CCC1CC2C(O)c1ccnc2ccc(OC)cc12.O.O.O=S(=O)(O)O (stereo not drawn)", "ASSAYED TARGET": "RAW-Dual", "NF-kB SEAP reporter activity": 0.931}
{"COMPOUND": "CC(C)=CCCC(C)(OC1OC(CO)C(O)C(O)C1O)C1CCC2(C)C1C(O)CC1C3(C)CCC(O)C(C)(C)C3C(OC3OC(CO)C(O)C(O)C3OC3OCC(O)C(O)C3O)CC12C (stereo not drawn)", "ASSAYED TARGET": "RAW-Dual", "NF-kB SEAP reporter activity": 0.958}
{"COMPOUND": "CN1CC(=O)N2C(Cc3c([nH]c4ccccc34)C2c2ccc3c(c2)OCO3)C1=O (stereo not drawn)", "ASSAYED TARGET": "RAW-Dual", "NF-kB SEAP reporter activity": 0.984}

Each recorded value in this set is attributed to the supplement of paper PMC10037445.
